tested on: U2OS; experiment: Multiplex assay against U2OS; format: toxicity, cell-based; conditions: human, 12 h, 1 µM, compound concentration 1 uM, replicate 1
# label = true (1) if Population Tubulin-Different-Phenotype (%) < 4% else false (0)

Answered examples (6):
>>> group_label("COC[C@@H](c1ccc(C(F)(F)F)cc1)N1CCN(C2(C)CCN(C(=O)c3c(C)ncnc3C)CC2)C[C@@H]1C.O=C(O)/C=C\\C(=O)O [VICRIVIROC MALEATE]")
"true (1)"
>>> group_label("O=C(CCCc1ccccc1)Nc1nc2ccccc2c(=O)s1")
"true (1)"
>>> group_label("CCc1cc2cc(NS(=O)(=O)c3ccc(C#N)cc3)ccc2n(CC)c1=O")
"true (1)"
>>> group_label("CC(/C=C1\\SC(=S)N(CCCC(=O)Nc2ccc(C(=O)O)c(O)c2)C1=O)=C\\c1ccccc1")
"true (1)"
>>> group_label("O=C1[C@H](Cc2ccc(O)cc2)N2C(=O)CCN(C(=O)NCc3ccccc3)[C@H]2CN1Cc1cccc2ccccc12")
"true (1)"
>>> group_label("Cc1cccc(NC(=O)CN2CCC(c3ccccn3)CC2)c1.Cl.Cl")
"true (1)"

Query: Is Population Tubulin-Different-Phenotype (%) strictly under 4% for the entry Cc1sc2c(c1C)C(c1ccc(Cl)cc1)=N[C@@H](CC(=O)NCCCCCCCCNC(=O)COc1cccc3c1C(=O)N(C1CCC(=O)NC1=O)C3=O)c1nnc(C)n1-2 (stereo partly drawn) ?
Reply: false (0)

Query: For this molecule, is Population Tubulin-Different-Phenotype (%) lower than 4%? C[C@H](N)COC(=O)[C@@H](CCCCN)NC(=O)Cc1c(-c2ccc3ccccc3c2)[nH]c2c1ccc1ccccc12
Reply: true (1)

Query: I wonder whether CN[C@@H](C)C(=O)N[C@H](C(=O)N1CCC[C@H]1C(=O)Nc1snnc1-c1ccccc1)C1CCCCC1 has Population Tubulin-Different-Phenotype (%) below 4%. Can you tell?
Reply: false (0)

Query: Decide: Population Tubulin-Different-Phenotype (%) of CCCOc1ccc2[nH]cc(C3=CCNCC3)c2n1.Cl strictly below 4%?
Reply: true (1)

Query: # TODO verify Population Tubulin-Different-Phenotype (%) < 4% strictly for this molecule: Cc1cnc(-c2cc(N3CCN(C(=O)CCS(C)(=O)=O)CC3)ncc2Cl)c(C)c1
Reply: true (1)
